Reported ASMS ratio (%) values follow for various compounds
biological target: Bcl-2 protein (Recombinant Human Bcl-2 Protein) (Homo sapiens); construct: purchased Novus NBP2-34889; test: Binding evaluation of mixture library compounds to Bcl-2 using AS-MS (affinity selection mass spectrometry); settings: n = 2
Sequence (P10415 whole entry): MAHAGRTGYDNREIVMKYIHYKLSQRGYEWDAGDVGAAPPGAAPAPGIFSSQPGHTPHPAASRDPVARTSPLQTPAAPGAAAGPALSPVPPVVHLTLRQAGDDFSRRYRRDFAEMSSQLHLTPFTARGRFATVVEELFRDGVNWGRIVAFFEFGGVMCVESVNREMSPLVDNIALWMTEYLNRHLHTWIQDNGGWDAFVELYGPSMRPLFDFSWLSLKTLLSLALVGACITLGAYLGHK
Kindly provide the numeric value in % only, without the unit symbol.

> print(dat)
                             chemicalstring  reported
1  CCOc1cncc(-c2cc(CN3CCN(c4ccc(C(=O)NS(C)(=O)=O)nn4)CC3)cc(OCC)c2)c1       1.9

(Q) Quote ASMS ratio (%) reported for `CCOc1cccc(-c2csc(C(=O)N3CCN(c4ccc(C(=O)NS(=O)(=O)c5ccc(NCCSc6ccccc6)c(C(F)(F)F)c5)cc4)CC3)c2)c1` please.
(A) −15.5

(Q) Tell us which ASMS ratio (%) value is on record for `CCOc1cccc(-c2ccccc2CCC(=O)N2CCN(c3ccc(C(=O)NS(=O)(=O)c4ccc(NCCSc5ccccc5)c(C(F)(F)F)c4)nn3)CC2)c1`
(A) −1.3

(Q) Indicate the recorded ASMS ratio (%) value for this compound: `CCOc1cccc(-c2csc(C(=O)N3CCN(c4ccc(C(=O)NS(=O)(=O)CCC(F)(F)F)cc4)CC3)c2)c1`
(A) 0.0

(Q) Indicate the recorded ASMS ratio (%) value for this compound: `CCOc1cncc(-c2ccc(C(=O)N3CCN(c4ccc(C(=O)NS(=O)(=O)c5ccc(NCCSc6ccccc6)c(C(F)(F)F)c5)nn4)CC3)c3ccccc23)c1`
(A) 15.1

(Q) Give me measured ASMS ratio (%), please, for this compound: `CCOc1cncc(-c2ccc(CN3CCN(c4ccc(C(=O)NS(C)(=O)=O)nn4)CC3)c(CC)c2)c1`
(A) −3.2

(Q) Identify measured ASMS ratio (%) associated with `CCOc1cncc(-c2cc(CN3CCN(c4ccc(C(=O)NS(=O)(=O)C(C)(C)C)cc4)CC3)cc(OC(F)(F)F)c2)c1`
(A) 0.0
